# Test system: DU145-TXR cells
# Experiment Notes: MTT viability assay, reversal of MDR (re-sensitization to paclitaxel) in P-gp overexpressing DU145-TXR cells
# Type: cell-based, human
# Reported Conditions: 15 µM compound + 500 nM PTX (Paclitaxel, Taxol); DU145-TXR; trial 2, sample 4
Listed below: % Survival values for each entry.
Report as a plain number; the unit % is understood.

>>> print(df.to_string())
                                   compound  reported_value
0  Nc1nonc1-n1nnc(C(=O)N/N=C/c2c3ccccc3cc3ccccc23)c1COc1ccc(F)cc1              89

(Q) Bench note: what % Survival did `Cc1ccc(-c2noc(-c3cn(Cc4ccc(NS(=O)(=O)c5ccccc5F)cc4)cn3)n2)cc1` show?
(A) 28

(Q) Find the recorded % Survival belonging to COc1ccc2c3c([nH]c2c1)[C@H](CC(C)C)N1C(=O)[C@H](CCC(=O)OC(C)(C)C)NC(=O)[C@@H]1C3 [Ko143, reference compound] and report it.
(A) 64

(Q) // lookup % Survival for `O=C(NCc1cccc(F)c1)c1nnn2c1Sc1c(C(=O)NCc3cccc(F)c3)nnn1CC2`
(A) 61

(Q) Please give the measured % Survival for this compound: `Cc1onc(-c2ccccc2)c1-c1nnc(Cn2cnc3ccccc3c2=O)o1`
(A) 38

(Q) What % Survival value was documented for this compound, `COc1cccc(N2CCN(c3ccc4nnc(CCC(=O)Nc5ccc(F)c(F)c5)n4n3)CC2)c1` ?
(A) 58

(Q) Field request: % Survival | item: O=S(=O)(Cc1nc2ccccc2n1CC(O)c1ccc(Cl)cc1)c1ccccc1 (centres unmarked)
(A) 42

(Q) Please look up its % Survival: `O=C(c1nc(-c2ccc3cc[nH]c3c2)no1)N1CCN(c2nsc3ccccc23)CC1`
(A) 43

---

# Tested on: DU145-TXR cells
# Experiment Notes: MTT viability assay, reversal of MDR (re-sensitization to paclitaxel) in P-gp overexpressing DU145-TXR cells
# Assay type: cell-based, human
# Reported Conditions: Homo sapiens, 15 µM Compound Alone; DU145-TXR; trial 2, sample 1; read-out: % Survival
Listed here: items and their measured viability at 15 µM.
Express it in %; write the number only.

Study these solved cases before continuing.
                                   compound  output_unit  reported_value
0  O=C(NCc1cccc(F)c1)c1nnn2c1Sc1c(C(=O)NCc3cccc(F)c3)nnn1CC2            %             123
1  Cc1onc(-c2ccccc2)c1-c1nnc(Cn2cnc3ccccc3c2=O)o1            %             106
2  O=S(=O)(Cc1nc2ccccc2n1CC(O)c1ccc(Cl)cc1)c1ccccc1 (centres unmarked)            %              77
3  COc1ccc(OC)c(NC(=O)c2nnn(-c3ccc4noc(-c5ccccc5)c4c3)c2C)c1            %              36

Now, please, on to the next compound.
(Q) # get_value(readout= viability at 15 µM, system= DU145-TXR cells) for `O=C(c1nc(-c2ccc3cc[nH]c3c2)no1)N1CCN(c2nsc3ccccc23)CC1`
(A) 90

---

# Tested on: HFL1 (human lung fibroblast) cell line
# Experiment Notes: MTT viability assay, inherent toxicity in non-cancerous HFL1 cells
# Format: cell-based
# Set-up: tested at 15 µM
# Reported Conditions: HFL1 cells, compound alone, mean of 8 samples
Below, each entry is listed with its recorded Mean % Survival.
Please respond with the number in % and leave the unit unwritten.

Consider the worked cases shown below.
Compound	Mean % Survival [%]
Cc1onc(-c2ccccc2)c1-c1nnc(Cn2cnc3c(oc4ccccc43)c2=O)o1	99.6
O=C(NCc1cccc(F)c1)c1nnn2c1Sc1c(C(=O)NCc3cccc(F)c3)nnn1CC2	79.7
Cc1ccc(-c2noc(-c3cn(Cc4ccc(NS(=O)(=O)c5ccccc5F)cc4)cn3)n2)cc1	93.4
O=S(=O)(Cc1nc2ccccc2n1CC(O)c1ccc(Cl)cc1)c1ccccc1 (stereo not shown)	84.9

(Q) What value of Mean % Survival has been reported for the following compound? COc1cccc2c1C(=O)c1c(O)c3c(c(O)c1C2=O)C[C@@](O)(C(C)=O)C[C@@H]3O[C@H]1C[C@H](N)[C@H](O)[C@H](C)O1 [Daunorubicin, reference compound]
(A) 18.1

(Q) Form field: reported Mean % Survival of `COc1cccc(N2CCN(c3ccc4nnc(CCC(=O)Nc5ccc(F)c(F)c5)n4n3)CC2)c1`
(A) 100.9

(Q) Reported Mean % Survival for `Cc1onc(-c2ccccc2)c1-c1nnc(Cn2cnc3ccccc3c2=O)o1` : what is it?
(A) 96.0
